- targetOfAssay: PIM1 transgenic cells (Ba/F3) (Homo sapiens, UniProt P11309)
- Sequence (P11309 whole entry, change not shown): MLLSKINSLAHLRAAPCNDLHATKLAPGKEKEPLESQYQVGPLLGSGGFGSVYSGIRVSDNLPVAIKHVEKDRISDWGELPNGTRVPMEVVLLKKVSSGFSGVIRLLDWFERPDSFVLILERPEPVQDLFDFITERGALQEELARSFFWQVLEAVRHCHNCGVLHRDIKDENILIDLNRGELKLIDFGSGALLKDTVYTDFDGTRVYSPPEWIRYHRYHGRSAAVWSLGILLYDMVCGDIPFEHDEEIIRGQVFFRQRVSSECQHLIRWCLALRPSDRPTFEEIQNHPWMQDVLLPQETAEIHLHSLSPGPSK
- measurementProtocol: Proliferation inhibitory effect on PIM1 transgenic cells
- Type: cell-based, mouse
- condition: proliferation inhibition, 72 hours, Cell Counting Kit-8, read-out: PIM1 IC50
Structures can show the parent of a compound that is named as a salt.
endpoint: GI50 (nM)
State the answer as a number, implicitly in nM.

Example results:
| compound | GI50 (nM) |
| --- | --- |
| Cc1c(F)cc(-c2n[nH]c(=O)o2)cc1N[C@@H](C)[C@H]1CCNC[C@H]1F [Example 227] | 24 |
| CN[C@H]1C[C@@H]([C@H](C)Nc2cc(-c3n[nH]c(=O)o3)cc(F)c2C(F)(F)F)C1 [Example 203, hydrochloride] | 54 |
| O=c1[nH]nc(-c2ccc(C(F)(F)F)c(NC[C@H]3CCNC[C@H]3F)c2)o1 [Example 126, hydrochloride] | 600 |
| N[C@H]1CC[C@H](CNc2cc(-c3n[nH]c(=O)o3)ccc2Br)CC1 [Example 68, hydrochloride] | 61 |

The reported value for C[C@H](Nc1cc(-c2n[nH]c(=O)o2)cc(F)c1C(F)(F)F)[C@H]1C[C@@H](N)C1(C)C [Example 164, hydrochloride] in terms of GI50 is 25

The reported value for C[C@H](Nc1cc(-c2n[nH]c(=O)o2)cc(F)c1C(F)(F)F)C1(F)CCNCC1 [Example 159, hydrochloride] in terms of GI50 is 30

The reported value for COc1c(F)cc(-c2n[nH]c(=O)o2)cc1N[C@@H](C)[C@H]1CC[C@H](N)CC1 [Example 167, hydrochloride] in terms of GI50 is 94

The reported value for N[C@H]1CC[C@H](COc2cc(-c3n[nH]c(=O)o3)ccc2Br)CC1 [Example 238] in terms of GI50 is 87

The reported value for C[C@H](Nc1c(F)c(-c2n[nH]c(=O)o2)cc(Cl)c1Cl)C1CCNCC1 [Example 87, hydrochloride] in terms of GI50 is 64

The reported value for CC(Oc1cc(-c2n[nH]c(=O)o2)ccc1C(F)(F)F)C1CCNCC1 (stereo not drawn) [Example 239] in terms of GI50 is 250

The reported value for C[C@H](Nc1cc(-c2n[nH]c(=O)o2)ccc1C(F)(F)F)C1CCNCC1 [Example 58, hydrochloride] in terms of GI50 is 33

The reported value for NCCCCCCNc1cc(-c2n[nH]c(=O)o2)ccc1C(F)(F)F [Example 4] in terms of GI50 is 3000

###

Listed next: entries and their corresponding log10 IC50.
- targetOfAssay: PIM1 serine/threonine kinase (Homo sapiens, UniProt P11309)
- Sequence (P11309 whole entry): as the sequence (P11309 whole entry, change not shown) above
- measurementProtocol: PIM1 serine/threonine kinase inhibitory effect
- condition: PIM1 serine/threonine kinase activity; ATP 40 μM; 30° C., 30 minutes
Structures can show the parent of a compound that is named as a salt.
// units: nM (pre-log); metric: IC50; scale: log10

| compound | endpoint | experimentalResult |
| --- | --- | --- |
| NC[C@H]1CC[C@H](Nc2cc(-c3n[nH]c(=O)o3)ccc2C(F)(F)F)CC1 [Example 37, hydrochloride] | log10 IC50 | 0.30 |
| C[C@H](Nc1cc(-c2n[nH]c(=O)o2)ccc1C(F)(F)F)C1CCCNCC1 (some centres unmarked) [Example 157, hydrochloride] | log10 IC50 | 0.52 |
| NCC1CCN(c2cc(-c3n[nH]c(=O)o3)ccc2Cl)CC1 | log10 IC50 | 1.77 |
| CC(CC1CCNCC1)Nc1cc(-c2n[nH]c(=O)o2)ccc1C(F)(F)F (centres unmarked) [Example 81, hydrochloride] | log10 IC50 | 0.63 |
| CC[C@H]1CNCC[C@H]1[C@H](C)Nc1cc(-c2n[nH]c(=O)o2)cc(F)c1C(F)(F)F | log10 IC50 | 0.73 |
| C[C@H](Nc1cc(-c2n[nH]c(=O)o2)cc(F)c1Cl)[C@H]1CC[C@H](N)CC1 [Example 177, hydrochloride] | log10 IC50 | -0.10 |

The reported value for C[C@H](Nc1cc(-c2n[nH]c(=O)o2)cc([N+](=O)[O-])c1Cl)C1CCNCC1 [Example 91, hydrochloride] in terms of log10 IC50 is 0.18

The reported value for CC1(CCNc2cc(-c3n[nH]c(=O)o3)ccc2C(F)(F)F)CCNCC1 [Example 70, hydrochloride] in terms of log10 IC50 is 0.62

The reported value for C[C@@H]1CNCC[C@@H]1[C@H](C)N1CCC(=O)c2c(F)cc(-c3n[nH]c(=O)o3)cc21 [Example 245, hydrochloride] in terms of log10 IC50 is 0.62

The reported value for CC1(C)[C@H](CNc2cc(-c3n[nH]c(=O)o3)ccc2C(F)(F)F)C[C@@H]1N [Example 166, hydrochloride] in terms of log10 IC50 is 0.36

The reported value for C[C@H](Nc1cc(-c2n[nH]c(=O)o2)cc(F)c1Br)C1CCNCC1 [Example 83, hydrochloride] in terms of log10 IC50 is 0.00

Every entry's value here was drawn from patent US20220024921A1.
